fold reactivity over background by entry:
Tested System: hemagglutinin (HA) of influenza B virus B/Florida (Yamagata lineage) (influenza B virus B/Florida/06 …)
Test Method Notes: recombinant HA ELISA (AttoPhos fluorescence, mean of triplicates)
Recorded Endpoint: fold reactivity over background (fold over background)

Binder	Test Value
TRL842 (antibody, V domains shown) VH: QVQLLESGGDVVQPGTSLRLSCAASGFSLWTSGMHWVRQAPGKGLEWVAVMSYDETKKYYADSVRGRFSISRDNSRNTLYLQMNSLRVEDTAVYFCAKPRLDYLDYFHAADSWGQGTLVSVSS VL: DIVLTQPPSVSVAPGQTATITCGGNYIGSKSVNWYQQRPGHAPVLVVYDDSDRPSGIPDRFSGSNSRSTATTATLTISRVEAGDEADYYCQVWETSEDLWVFGGGTKLTVLG	25.6
TRL812 (antibody, V domains shown) VH: QVQLVQSGGGVVQPGRSLRLSCAASGFNFSSYGMHWVRQAPGKGLEWLSVIWSGGSNKYYADSVKGRFTISRDDSKNTVYLQMNSLRDEDTAVYYCARAHTALTRFRWLDPWGQGILVTVSS VL: DIVMTQSPATLSVSPGEGATLSCRASQGIGSNLAWYQHKPGQAPRLLIYAASTRATGVPARFSGSGSGTEFTLTISSLQSEDLAVYFCQQYNTWPLTFGGGTKVEIIR	25.6
TRL053 (antibody, V domains shown) VH: QVQLVQSGAEVRKPGSSVKVSCKVSGGIIRKYAINWVRQAPGQGLEWMGGIIAIFNTANYAQKFQGRVTITADESTSTVYMELSSLRSEDTALYYCARGMNYYSDYFDYWGQGSLVTVSP VL: EIVLTQSPGTLSLSPGERATLSCRASQSVRSNNLAWYQHKPGQAPRLLIFGASSRATGIPDRFSGSGSGTDFTLTISRLEPEDFAVYYCQQYGSSPALTFGGGTKVEIKR	1.1
